Assignment: determine reported protein stability index for the given sequences.
Test: protein stability index of a GFP-peptide fusion (yeast GPS) (PSI 1-4); higher = more stable; sorted into four equal gates, so the index is relative within each strain
Condition description: san1∆
Kindly provide the number alone.

PNPTPSMINSVSPTNVM [PGD1] has a reported protein stability index of 2.32

TIWCVCDSYLDADKELS [BRR2] has a reported protein stability index of 2.92

ERAAQKLRLDQLVIQQG [ISW2] has a reported protein stability index of 2.74

KKECALLISYGVSIENE [SRB4] has a reported protein stability index of 1.96

FELFDNKTAHLSIPGKS [SNU114] has a reported protein stability index of 2.25

TAGKTSVKSARTSTRGR [SNF2] has a reported protein stability index of 3.12

EVLTYVNYLISNTMYSV [YJL039C/NUP192] has a reported protein stability index of 2.45

RIIGLSATLPNYEDVGR [BRR2] has a reported protein stability index of 2.33

KDEYLAQLDGRIGVLQA [NSL1] has a reported protein stability index of 2.41

ESGKVFIGRLPIMLRSK [RPB2] has a reported protein stability index of 2.94

LPQCIIPSSYIKRTDEG [ARP7] has a reported protein stability index of 2.13

SSVMSSPRVEKRSFSST [YOR098C/NUP1] has a reported protein stability index of 2.44

TNVQRIAAYIRRHRNPD [SMC1] has a reported protein stability index of 3.29

ALMKTLIKFVDLSRNGR [NUT1] has a reported protein stability index of 2.26

SKPSTASPSAHTSSSDG [RPN4] has a reported protein stability index of 2.66

HGSIIILGMLSLADNEI [YCS4] has a reported protein stability index of 2.05

KTTRLLLIIRSLKNTDA [YJL039C/NUP192] has a reported protein stability index of 1.19

GNLIGVDPFDSDEEESV [SNU114] has a reported protein stability index of 3

NSASNNGNLTSNQLISN [SWI1] has a reported protein stability index of 2.45

TLSPNVTDSSLLKLLTR [GRR1] has a reported protein stability index of 2.83

IKDLQRAINKVLCTRLR [SIR2] has a reported protein stability index of 1.18

RKLEISSRFKHRQEIFK [GAL11] has a reported protein stability index of 3.01

PLKRAIWLIKCCYFIEW [SRB8] has a reported protein stability index of 2.85

QLRKEIQLLDENVGTRL [MED11] has a reported protein stability index of 3.57

VAALRFTAGARAKIVKA [RPL18A] has a reported protein stability index of 1.24

IEEQDKKVQALQSDKNF [ITC1] has a reported protein stability index of 3.14

RKFKSRRCDDMLYYIQN [POP4] has a reported protein stability index of 2.81

LIESLNTIRQNVTSSGD [YML103C/NUP188] has a reported protein stability index of 1.17

IDDENITKLNKEIRAFD [SRB4] has a reported protein stability index of 3.27

KSTDLTPKGNESEQELS [MTR3] has a reported protein stability index of 2.46

LHVLPTLNSRALSGLYY [SNM1] has a reported protein stability index of 2.12

HDNHGNKLGNKRLTEDE [CDC53] has a reported protein stability index of 2.37

LKNYVLNELHPTLPTNH [PRP8] has a reported protein stability index of 2.53

LMRQALAIKDSKKRFAA [RPO21] has a reported protein stability index of 1.98

KCSATNRIIKADDHASV [RPS21A] has a reported protein stability index of 3.13

VTRLFFICSIIQTVVIS [YML031W/NDC1] has a reported protein stability index of 1.46

AMSETLSKVSLLTPDIG [PRE8] has a reported protein stability index of 3.04

VLEYLAAEILELAGNAA [HTA1] has a reported protein stability index of 2.54

DRVIFRVPIRSEYKVAF [PRP8] has a reported protein stability index of 2.55

NMLPQRQSSVGSLNATN [SNF2] has a reported protein stability index of 2.78

MLSILEIFKKGYIKNNK [POP6] has a reported protein stability index of 3

SRRLMKSLEDLSCQYDN [RPO31] has a reported protein stability index of 1.36

VNDVEELGEIIDEDIGN [RMP1] has a reported protein stability index of 2.98

INSAPDFTQEDELRKQE [ISW2] has a reported protein stability index of 3.4

DELSSKELVECHLYSQR [NNF1] has a reported protein stability index of 2.13

FANNHFLNSNAVVVGTG [COR1] has a reported protein stability index of 2.33

LVSSYLNKSDLLDKYGK [YML103C/NUP188] has a reported protein stability index of 3.17

LLRSRLATRRVLQEYRL [RPO21] has a reported protein stability index of 2.27
